Source of measurements: ChEMBL document CHEMBL4368886

# Tested on: Bacillus cereus
# testMethodNotes: Antimicrobial activity against Bacillus cereus ATCC 8035 measured every 24 hrs for 5 days by two-fold serial dilution method
# Assay type: functional
Activity calls are given as the source filed them. The rule behind the calls is not given here.

molecule | targetUnderTest | MIC
CC[N+](C)(C)CCCNC(c1cc(C(C)(C)C)c(O)c(C(C)(C)C)c1)P(=O)(OC(C)C)OC(C)C (stereo not drawn) | Bacillus cereus | 105 µM
CCCCCCCC[N+](C)(C)CCCNC(=O)CCc1cc(C(C)(C)C)c(O)c(C(C)(C)C)c1 | Bacillus cereus | 28.1 µM
CC[N+](C)(C)CCNC(c1cc(C(C)(C)C)c(O)c(C(C)(C)C)c1)P(=O)(OC(C)C)OC(C)C (stereo not drawn) | Bacillus cereus | 216 µM
CCCCCCCCCCCCCCCC[N+](C)(C)CCCNC(=O)CCc1cc(C(C)(C)C)c(O)c(C(C)(C)C)c1 | Bacillus cereus | 375 µM
CC[N+](C)(C)CCCNC(=O)CCc1cc(C(C)(C)C)c(O)c(C(C)(C)C)c1 | Bacillus cereus | inactive
CCCCCCCCCC[N+](C)(C)CCCNC(=O)CCc1cc(C(C)(C)C)c(O)c(C(C)(C)C)c1 | Bacillus cereus | 6.7 µM
CC[N+](C)(C)CCNC(=O)CCc1cc(C(C)(C)C)c(O)c(C(C)(C)C)c1 | Bacillus cereus | inactive
CCCCCCCCCC[N+](C)(C)CCCNC(c1cc(C(C)(C)C)c(O)c(C(C)(C)C)c1)P(=O)(OC(C)C)OC(C)C.[Br-] (stereo not drawn) | Bacillus cereus | 2.7 µM
